Tested on: ATP;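 further: ATP exposure 15 min at 22 °C before imaging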
protocol_summary: switch fluorescence ratio, 500 uM ATP over buffer (Cy3 cluster intensity, sum of 5 cycles each) (fold (ratio)); higher = stronger signal-on switching upon ATP binding; sequences stand for … in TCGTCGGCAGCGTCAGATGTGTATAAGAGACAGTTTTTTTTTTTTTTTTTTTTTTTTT…TC
experimental_conditions: aptamer strand: ATP DNA aptamer (quencher-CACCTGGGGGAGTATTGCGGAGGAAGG + anchor), 100 nM annealed; ATP concentration: 500 uM
endpoint: switch fluorescence ratio

GATTATCAGA; 0.988

Sample `TCTTAAAGGG` ; switch fluorescence ratio observed: 0.981

Sample `ATCGGGGTGC` ; switch fluorescence ratio observed: 1.03

Sample `TTTTCGGGTA` ; switch fluorescence ratio observed: 1.02

Sample `CGTCAAATAT` ; switch fluorescence ratio observed: 1.13

Sample `GTGGTTTTTG` ; switch fluorescence ratio observed: 0.968

Sample `TTTGGTAATT` ; switch fluorescence ratio observed: 1.03

Sample `TTTAAGACAA` ; switch fluorescence ratio observed: 0.989

Sample `TAGGCTACGG` ; switch fluorescence ratio observed: 1.03

* * *

Recorded switch fluorescence ratio for the following sequences
Tested on: ATP;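 further: ATP exposure 15 min at 22 °C before imaging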
protocol_summary: switch fluorescence ratio, 500 uM ATP over buffer (Cy3 cluster intensity, sum of 5 cycles each) (fold (ratio)); higher = stronger signal-on switching upon ATP binding; sequences stand for … in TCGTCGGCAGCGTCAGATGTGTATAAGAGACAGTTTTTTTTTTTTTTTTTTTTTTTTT…TC
experimental_conditions: aptamer strand: ATP DNA aptamer (quencher-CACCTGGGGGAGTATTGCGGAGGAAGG + anchor), 100 nM annealed; ATP concentration: 500 uM
Simply state the number, no unit and no words.

The examples below pair each entry with its known result.
GTGATCAAGC; 0.984
GCGTCAGCGG; 0.981
CATGATGGGG; 0.96
GTGAGTTTTA; 0.971
GAAATTGGGT; 0.981

Readout switch fluorescence ratio for `TTTTTCAGTA` , test system ATP, was 0.981

Readout switch fluorescence ratio for `CTATTATGTG` , test system ATP, was 0.985

Readout switch fluorescence ratio for `TGGGATTTTC` , test system ATP, was 1.03

Readout switch fluorescence ratio for `GTTACTTGTA` , test system ATP, was 0.978

Readout switch fluorescence ratio for `ACGGTGGTGT` , test system ATP, was 1.03

* * *

Test system: ATP;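 further: ATP exposure 15 min at 22 °C before imaging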
protocol_summary: switch fluorescence ratio, 500 uM ATP over buffer (Cy3 cluster intensity, sum of 5 cycles each) (fold (ratio)); higher = stronger signal-on switching upon ATP binding; sequences stand for … in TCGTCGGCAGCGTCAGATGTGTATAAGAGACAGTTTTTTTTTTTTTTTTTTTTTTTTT…TC
experimental_conditions: aptamer strand: ATP DNA aptamer (quencher-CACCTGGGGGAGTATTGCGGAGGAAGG + anchor), 100 nM annealed; ATP concentration: 500 uM
endpoint: switch fluorescence ratio
Simply state the number, no unit and no words.

CAAAGTGGTG; 0.97

Sample `TAATTGGTGT` ; switch fluorescence ratio observed: 1.02

Sample `GGTCCATGGG` ; switch fluorescence ratio observed: 0.967

Sample `AAATCGTCGG` ; switch fluorescence ratio observed: 0.991

Sample `TTGATATATT` ; switch fluorescence ratio observed: 0.981

Sample `ACATTACACA` ; switch fluorescence ratio observed: 1.4

Sample `GGATTGTGTT` ; switch fluorescence ratio observed: 0.985

Sample `GTTGTTTGCG` ; switch fluorescence ratio observed: 0.953

Sample `GCGAGGGGGA` ; switch fluorescence ratio observed: 0.984
